Tested System: human CatL (Homo sapiens, UniProt P07711)
Sequence (P07711 114-333): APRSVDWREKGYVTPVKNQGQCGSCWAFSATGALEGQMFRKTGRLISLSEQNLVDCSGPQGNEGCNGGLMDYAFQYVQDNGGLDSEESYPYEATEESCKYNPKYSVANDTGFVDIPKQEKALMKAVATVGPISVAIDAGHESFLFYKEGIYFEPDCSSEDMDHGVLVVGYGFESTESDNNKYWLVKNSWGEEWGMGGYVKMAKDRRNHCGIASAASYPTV
Test Description: kinact/KI^app determination, recombinant human CatL
Assay type: biochemical
Consider the cut-off 0.006 s⁻¹. If the recorded kinact is strictly smaller, the label is yes (1); if not, the label is no (0).

Here's what some known entries look like.
COC1=CC(=O)N(C(=O)/C=C/[C@H](CCc2ccccc2)NC(=O)[C@H](CC(C)C)NC(=O)[C@H](CC(C)C)NC(=O)[C@H](C(C)C)N(C)C)[C@H]1Cc1c[nH]c2ccccc12 = no (0)
COC1=CC(=O)N(C(=O)/C=C/[C@H](C)NC(=O)[C@H](CC(C)C)NC(=O)[C@H](CC2CCCCC2)NC(=O)C2CCN(C)CC2)[C@H]1Cc1c[nH]c2ccccc12 = yes (1)
CC[C@H](C)[C@@H](C(=O)O[C@@H](CC(C)C)C(=O)N[C@@H](CC(C)C)C(=O)N[C@@H](C)/C=C/C(=O)N1C(=O)C=C(OC)[C@@H]1C)N(C)C [compound 1, gallinamide A] = yes (1)

Lab note: next compound to report on.
Query: Please state whether kinact is below 0.006 s⁻¹ for COC1=CC(=O)N(C(=O)/C=C/[C@H](C)NC(=O)[C@H](CC(C)C)NC(=O)[C@H](CC(C)C)NC(=O)C2CCN(C)CC2)[C@H]1Cc1c[nH]c2ccccc12
Result: no (0)

---

Tested System: human CatL (Homo sapiens)
Test Description: kinact/KI^app determination, recombinant human CatL
Assay type: biochemical
Assay Conditions: read-out: kinact/KI^app
Readout Label: kinact/KI (M⁻¹ s⁻¹)
Give bare numbers, in M⁻¹ s⁻¹.

Guide cases for kinact/KI, answers given:
COC1=CC(=O)N(C(=O)/C=C/[C@H](C)NC(=O)[C@H](CCc2ccccc2)NC(=O)[C@H](CC2CCCCC2)NC(=O)[C@H](C(C)C)N(C)C)[C@H]1Cc1c[nH]c2ccccc12 = 189000
COC1=CC(=O)N(C(=O)/C=C/[C@H](C)NC(=O)[C@H](CC(C)C)NC(=O)[C@H](CC2CCCCC2)NC(=O)C2CCN(C)CC2)[C@H]1Cc1c[nH]c2ccccc12 = 193000
COC1=CC(=O)N(C(=O)/C=C/[C@H](C)NC(=O)[C@H](CC(C)C)NC(=O)[C@H](CC(C)C)NC(=O)C2CCN(C)CC2)[C@H]1Cc1c[nH]c2ccccc12 = 290000
COC1=CC(=O)N(C(=O)/C=C/[C@H](CCc2ccccc2)NC(=O)[C@H](CC(C)C)NC(=O)[C@H](CC(C)C)NC(=O)[C@H](C(C)C)N(C)C)[C@H]1Cc1c[nH]c2ccccc12 = 835000

Query: Requested read-out kinact/KI, target or system human CatL (Homo sapiens), entry CC[C@H](C)[C@@H](C(=O)O[C@@H](CC(C)C)C(=O)N[C@@H](CC(C)C)C(=O)N[C@@H](C)/C=C/C(=O)N1C(=O)C=C(OC)[C@@H]1C)N(C)C [compound 1, gallinamide A]
Result: 598000

---

Tested System: Mouse CatL (mCatL) (Mus musculus)
Sequence (P06797 114-334): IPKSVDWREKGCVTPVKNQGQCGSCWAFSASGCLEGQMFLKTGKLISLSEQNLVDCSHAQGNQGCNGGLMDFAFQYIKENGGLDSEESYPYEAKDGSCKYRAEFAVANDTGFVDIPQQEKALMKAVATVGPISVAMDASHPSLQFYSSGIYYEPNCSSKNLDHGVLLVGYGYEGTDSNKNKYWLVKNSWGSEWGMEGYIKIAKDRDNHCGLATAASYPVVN
Test Description: kinact/KI^app determination, mouse CatL
Assay type: biochemical
Assay Conditions: read-out: kinact/KI^app
Provide the reported kinact/KI of each item.
Numbers only, in M⁻¹ s⁻¹.

Guide cases for kinact/KI, answers given:
COC1=CC(=O)N(C(=O)/C=C/[C@H](C)NC(=O)[C@H](CC(C)C)NC(=O)[C@H](CC2CCCCC2)NC(=O)C2CCN(C)CC2)[C@H]1Cc1c[nH]c2ccccc12 = 292000
COC1=CC(=O)N(C(=O)/C=C/[C@H](CCc2ccccc2)NC(=O)[C@H](CC(C)C)NC(=O)[C@H](CC(C)C)NC(=O)[C@H](C(C)C)N(C)C)[C@H]1Cc1c[nH]c2ccccc12 = 2.31e+06
COC1=CC(=O)N(C(=O)/C=C/[C@H](C)NC(=O)[C@H](CC(C)C)NC(=O)[C@H](CC(C)C)NC(=O)C2CCN(C)CC2)[C@H]1Cc1c[nH]c2ccccc12 = 806000
CC[C@H](C)[C@@H](C(=O)O[C@@H](CC(C)C)C(=O)N[C@@H](CC(C)C)C(=O)N[C@@H](C)/C=C/C(=O)N1C(=O)C=C(OC)[C@@H]1C)N(C)C [compound 1, gallinamide A] = 1.07e+06

Query: Given the entry COC1=CC(=O)N(C(=O)/C=C/[C@H](C)NC(=O)[C@H](CCc2ccccc2)NC(=O)[C@H](CC2CCCCC2)NC(=O)[C@H](C(C)C)N(C)C)[C@H]1Cc1c[nH]c2ccccc12 , report its measured kinact/KI.
Result: 136000
